# subject_of_test: SARS-CoV-2 PL^pro (Severe acute respiratory syndrome coronavirus 2, UniProt P0DTD1)
# Construct: PL^pro papain-like protease
# assay_text: SPE-MS SARS-CoV-2 PL^pro inhibition assay
# condition_context: isolated recombinant SARS-CoV-2 PL^pro, SPE-MS; n = 2, mean ± SD
property: IC50

Query :: Give the reported value of IC50 for this record: CSCC[C@@H](C#N)NC(=O)[C@@H]1[C@@H]2[C@H](CN1C(=O)[C@@H](NC(=O)C(F)(F)F)C(C)(C)C)C2(C)C
Result :: > 100 µM
